- Tested on: Klebsiella pneumoniae
- ASSAY_DETAILS: Antibacterial activity against wild type Klebsiella pneumoniae ATCC 13883 assessed as inhibition of bacterial growth measured after 16 to 20 hrs
Consider the following compounds; for each one, report its MIC.

>>> recorded_value("CCCCCCc1ccc(-c2ccc([S@](=N)(=O)N3CCC[C@H]3C(=O)N[C@H](C(=O)N[C@@H](C)C(=O)NC(CC(N)=O)C(=O)N[C@@H](C)B3O[C@@H]4C[C@H]5C[C@H](C5(C)C)[C@]4(C)O3)[C@@H](C)O)cc2)cc1 (mixture of isomers)")
"> 64 µg/mL"
>>> recorded_value("CCCCCCc1ccc(-c2ccc(S(=O)(=O)N3CCC[C@H]3C(=O)N[C@H](C(=O)N[C@@H](C)C(=O)NC(CC(N)=O)C(=O)N[C@@H](C)B3O[C@@H]4C[C@H]5C[C@H](C5(C)C)[C@]4(C)O3)[C@@H](C)O)cc2)cc1 (mixture of isomers)")
"> 64 µg/mL"
>>> recorded_value("CCCCCCCCCCCCS(=O)(=O)N1CCC[C@H]1C(=O)N[C@H](C(=O)N[C@@H](C)C(=O)NC(CC(N)=O)C(=O)N[C@@H](C)B1O[C@@H]2C[C@H]3C[C@H](C3(C)C)[C@]2(C)O1)[C@@H](C)O (mixture of isomers)")
"> 64 µg/mL"
>>> recorded_value("CCCCCCc1ccc(-c2ccc(S(=O)(=NCCN)N3CCC[C@H]3C(=O)N[C@H](C(=O)N[C@@H](C)C(=O)NC(CC(N)=O)C(=O)N[C@@H](C)B3O[C@@H]4C[C@H]5C[C@H](C5(C)C)[C@]4(C)O3)[C@@H](C)O)cc2)cc1 (stereo not given in full)")
"> 64 µg/mL"

Can you look up the measured MIC of CCCCCCc1ccc(-c2ccc([S@@](=N)(=O)N3CCC[C@H]3C(=O)N[C@H](C(=O)N[C@@H](C)C(=O)NC(CC(N)=O)C(=O)N[C@@H](C)B3O[C@@H]4C[C@H]5C[C@H](C5(C)C)[C@]4(C)O3)[C@@H](C)O)cc2)cc1 (mixture of isomers) for me?
> 64 µg/mL
